Biological target: Inhibitor of nuclear factor kappa-B kinase subunit epsilon (Homo sapiens) (UniProt Q14164);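 further: reported values are averaged percent inhibition figures against human IKKε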
Sequence (Q14164 whole entry): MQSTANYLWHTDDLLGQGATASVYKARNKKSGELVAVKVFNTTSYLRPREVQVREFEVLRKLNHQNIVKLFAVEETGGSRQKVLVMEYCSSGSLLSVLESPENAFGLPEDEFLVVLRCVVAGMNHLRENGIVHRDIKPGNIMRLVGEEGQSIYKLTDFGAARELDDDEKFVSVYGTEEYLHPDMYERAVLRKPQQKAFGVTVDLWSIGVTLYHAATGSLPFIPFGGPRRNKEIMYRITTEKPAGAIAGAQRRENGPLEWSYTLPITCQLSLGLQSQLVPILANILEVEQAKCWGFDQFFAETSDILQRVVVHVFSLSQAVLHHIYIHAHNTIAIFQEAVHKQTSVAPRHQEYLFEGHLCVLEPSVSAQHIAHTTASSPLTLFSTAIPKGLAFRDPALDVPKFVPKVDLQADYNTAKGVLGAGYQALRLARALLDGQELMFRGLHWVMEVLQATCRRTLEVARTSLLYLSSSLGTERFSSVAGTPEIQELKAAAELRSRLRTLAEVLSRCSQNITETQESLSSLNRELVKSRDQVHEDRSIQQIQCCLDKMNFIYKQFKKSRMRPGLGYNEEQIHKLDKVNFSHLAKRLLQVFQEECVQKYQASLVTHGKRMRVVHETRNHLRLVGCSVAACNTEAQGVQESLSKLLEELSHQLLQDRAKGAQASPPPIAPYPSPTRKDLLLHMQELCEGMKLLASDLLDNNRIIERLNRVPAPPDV
Settings: at 1 µM
observation-type: inhibition (%)

CCN1CCC(C(=O)Nc2n[nH]c3nnc(-c4cccc(F)c4F)cc23)CC1; -0.18
CS(=O)(=O)CCNCc1ccoc1-c1ccc2ncnc(Nc3ccc(OCc4ccccc4)cc3)c2c1; 0.42
CC1=C(C(=O)Nc2ccc3[nH]ncc3c2)C(c2ccc(F)cc2)N=C(c2ccc(C(F)(F)F)nc2)N1 (configuration not stated); 3.45
COc1ccccc1-c1cc(/C=C2\C(=O)Nc3ncc(Br)cc32)cc(Br)c1O; 12.5
NC(=O)c1ccc2c(-c3ccnc(NCCCO)n3)c(-c3ccc(F)cc3)nn2c1; 3.59
c1cnn2ncc(-c3ccnc(NCCCN4CCOCC4)n3)c2c1; 13.4
COc1cccc(Nc2nccc(-c3cnn4ncccc34)n2)c1; 18.1

###

Biological target: Rho-associated protein kinase 2 (Homo sapiens) (UniProt O75116);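 further: values are averaged inhibition readings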
Sequence (O75116 whole entry, looked up): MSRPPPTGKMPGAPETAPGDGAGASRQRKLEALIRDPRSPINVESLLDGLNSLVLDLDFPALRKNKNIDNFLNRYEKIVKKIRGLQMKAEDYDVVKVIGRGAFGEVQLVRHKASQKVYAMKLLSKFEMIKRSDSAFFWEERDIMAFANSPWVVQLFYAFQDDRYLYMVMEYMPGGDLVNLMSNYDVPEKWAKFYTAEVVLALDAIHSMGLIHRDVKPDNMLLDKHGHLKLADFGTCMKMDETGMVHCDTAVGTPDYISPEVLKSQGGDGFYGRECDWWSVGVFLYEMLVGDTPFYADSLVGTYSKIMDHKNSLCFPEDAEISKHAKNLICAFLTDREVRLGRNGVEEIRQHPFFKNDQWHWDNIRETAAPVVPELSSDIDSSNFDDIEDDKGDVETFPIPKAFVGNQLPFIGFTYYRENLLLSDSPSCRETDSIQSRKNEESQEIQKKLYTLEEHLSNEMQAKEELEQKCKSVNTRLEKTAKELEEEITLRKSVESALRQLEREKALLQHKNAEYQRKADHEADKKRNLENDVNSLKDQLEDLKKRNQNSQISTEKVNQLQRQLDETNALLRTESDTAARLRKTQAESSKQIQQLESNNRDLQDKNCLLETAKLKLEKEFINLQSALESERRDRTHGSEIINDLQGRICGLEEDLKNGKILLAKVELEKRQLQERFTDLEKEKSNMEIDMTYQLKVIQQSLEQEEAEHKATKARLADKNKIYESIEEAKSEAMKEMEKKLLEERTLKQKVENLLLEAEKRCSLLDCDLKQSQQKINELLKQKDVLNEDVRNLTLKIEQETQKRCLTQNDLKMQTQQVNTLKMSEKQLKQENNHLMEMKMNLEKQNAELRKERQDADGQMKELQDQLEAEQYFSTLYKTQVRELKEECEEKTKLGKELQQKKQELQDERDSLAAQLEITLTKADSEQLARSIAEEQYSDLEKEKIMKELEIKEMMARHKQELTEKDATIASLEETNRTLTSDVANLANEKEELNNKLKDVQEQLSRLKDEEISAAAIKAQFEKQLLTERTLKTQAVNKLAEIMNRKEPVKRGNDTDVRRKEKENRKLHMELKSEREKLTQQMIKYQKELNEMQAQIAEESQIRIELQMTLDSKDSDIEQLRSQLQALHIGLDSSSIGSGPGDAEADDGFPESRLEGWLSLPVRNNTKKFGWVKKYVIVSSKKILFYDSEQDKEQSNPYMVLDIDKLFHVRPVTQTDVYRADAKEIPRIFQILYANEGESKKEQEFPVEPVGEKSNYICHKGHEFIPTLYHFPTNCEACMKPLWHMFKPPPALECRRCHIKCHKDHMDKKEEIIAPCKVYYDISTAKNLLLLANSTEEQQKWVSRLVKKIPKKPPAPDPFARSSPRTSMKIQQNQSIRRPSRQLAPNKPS
Conditions: at 0.1 µM
observation-type: inhibition (%)

COc1ccccc1-c1cc(/C=C2\C(=O)Nc3ncc(Br)cc32)cc(Br)c1O; 1.89
Cc1c2ccc(N(C)c3ccnc(Nc4cccc(S(N)(=O)=O)c4)n3)cc2nn1C; 2.24
CS(=O)(=O)CCNCc1ccc(-c2ccc3ncnc(Nc4ccc(OCc5ccccc5)cc4)c3c2)o1; 2.02
Cc1cc(O)cc(C)c1/C=C/c1cncc(C(=O)OC(C)(C)C)c1; 4.67
Fc1ccc(Nc2nccc(-c3c(-c4ccc(C(F)(F)F)cc4)nn4ncccc34)n2)cc1F; 1.24
COc1cc2c(cc1Nc1nc(Nc3cccc(F)c3C(N)=O)c3cc[nH]c3n1)N(C(=O)CN1CCN(C(C)C)CC1)CC2; 0.62
COc1ccc(-c2nn3ncccc3c2-c2ccnc(Nc3ccc(F)c(F)c3)n2)cc1; 3.85
CS(=O)(=O)CCNCc1ccc(-c2ccc3ncnc(Nc4ccc(OCc5cccc(C(F)(F)F)c5)cc4)c3c2)o1; 2.07
CNC(=O)c1ncccc1Nc1nc(Nc2cc3c(cc2OC)CCCN3C(=O)CN(C)C)nc2[nH]ccc12; 3.75
CCn1c(-c2nonc2N)nc2cncc(C(=O)NCCNC)c21; 80.6
NS(=O)(=O)c1ccc(N/N=C2\C(=O)Nc3cccc(CCc4ccncc4)c32)cc1; 0.96
CN(C)CCNC(=O)Nc1ccc(N(C)c2ccnc(Nc3ccc(CS(C)(=O)=O)cc3)n2)cc1; 5.05

###

Biological target: Tyrosine-protein kinase Lyn (Homo sapiens);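 further: mean inhibition of the LYN B splice variant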
Details: at 0.1 µM
Description: GSK_PKIS: LYN B (splice variant) mean inhibition at 0.1 uM [Nanosyn]
Item-by-item account of inhibition
observation-type: inhibition (%)

Cc1nnc(-c2cccc(-c3ccc(C(=O)NCC4CC4)cc3)c2)o1; 3.09
CS(=O)(=O)Nc1ccc(-c2cc(-c3ccccc3)cc(C(N)=O)c2N)cc1; -1.81
CS(=O)(=O)CCNCc1ccoc1-c1ccc2ncnc(Nc3ccc(OCc4ccccc4)cc3)c2c1; 1.69

###

Molecular target: Maternal embryonic leucine zipper kinase (Homo sapiens) (UniProt Q14680);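 further: each value is the mean inhibition of MELK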
Sequence (Q14680 whole entry, looked up): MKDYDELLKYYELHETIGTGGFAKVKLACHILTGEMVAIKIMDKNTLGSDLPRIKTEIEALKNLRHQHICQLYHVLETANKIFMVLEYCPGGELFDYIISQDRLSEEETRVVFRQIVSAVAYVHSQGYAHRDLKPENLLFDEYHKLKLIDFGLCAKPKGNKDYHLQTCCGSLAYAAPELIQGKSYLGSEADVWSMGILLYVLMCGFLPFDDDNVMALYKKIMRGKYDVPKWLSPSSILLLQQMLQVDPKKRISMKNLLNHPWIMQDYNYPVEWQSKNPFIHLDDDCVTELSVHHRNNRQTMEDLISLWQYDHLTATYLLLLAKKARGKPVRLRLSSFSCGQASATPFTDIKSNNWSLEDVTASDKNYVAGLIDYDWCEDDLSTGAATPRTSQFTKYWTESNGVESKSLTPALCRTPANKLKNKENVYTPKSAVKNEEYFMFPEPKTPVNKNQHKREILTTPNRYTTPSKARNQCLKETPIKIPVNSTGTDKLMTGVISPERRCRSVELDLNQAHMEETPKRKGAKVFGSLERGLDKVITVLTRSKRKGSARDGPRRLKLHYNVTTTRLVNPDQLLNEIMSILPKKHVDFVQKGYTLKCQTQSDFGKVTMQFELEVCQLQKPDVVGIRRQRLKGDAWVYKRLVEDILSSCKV
Conditions: at 1 µM
Item-by-item account of inhibition
observation-type: inhibition

Cn1c(-c2nonc2N)nc2cnccc21; 22.1%
COc1cc(N2CCN(C(C)C)CC2)ccc1Nc1nc(Nc2cccc(F)c2C(=O)O)c2cc[nH]c2n1; 7.68%
NS(=O)(=O)c1ccc(N/N=C2\C(=O)Nc3ccc(C(=O)NCc4ccncc4)cc32)cc1; 90.6%
CNC(=O)c1cncc(/C=C/c2ccccc2C)c1; 4.29%
O=C1Nc2ccccc2/C1=C1\CCc2cc(O)ccc21; 56.8%
COC(=O)Nc1nc2cc(Oc3ccc(NC(=O)Nc4ccccc4)cc3)ccc2[nH]1; 2.1%
FC(F)(F)CNc1nccc(-c2cnn3ncccc23)n1; 27.5%
Cc1cc(O)cc(C)c1/C=C/c1cncc(C(=O)OC(C)(C)C)c1; 5.89%
CC(C)c1ccc(-c2cc(-c3c[nH]nc3-c3ccccn3)ccn2)cc1; 3.48%
Cc1c2ccc(N(C)c3ccnc(Nc4cccc(S(N)(=O)=O)c4)n3)cc2nn1C; 3.67%
c1ccc(-c2n[nH]cc2-c2ccnc(-c3ccc(OCCn4ccnc4)cc3)c2)nc1; 27.2%
O=C(O[C@H]1CN[C@H](C#Cc2cc3ncnc(Nc4ccc5c(cnn5Cc5ccccc5)c4)c3s2)C1)N1CCOCC1; -1.35%
CCS(=O)(=O)c1ccc(OC)c(Nc2ncc(-c3cccc(F)c3)o2)c1; 15.4%
COc1ccccc1-c1cc(/C=C2\C(=O)Nc3ncc(Br)cc32)cc(Br)c1O; 8.21%
NS(=O)(=O)c1ccc(N/N=C2\C(=O)Nc3cccc(CCc4ccncc4)c32)cc1; 34.7%

###

Target: Mitogen-activated protein kinase 3 (Homo sapiens) (UniProt P27361);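 further: values are mean percent inhibition of MAPK3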
Sequence (P27361 whole entry): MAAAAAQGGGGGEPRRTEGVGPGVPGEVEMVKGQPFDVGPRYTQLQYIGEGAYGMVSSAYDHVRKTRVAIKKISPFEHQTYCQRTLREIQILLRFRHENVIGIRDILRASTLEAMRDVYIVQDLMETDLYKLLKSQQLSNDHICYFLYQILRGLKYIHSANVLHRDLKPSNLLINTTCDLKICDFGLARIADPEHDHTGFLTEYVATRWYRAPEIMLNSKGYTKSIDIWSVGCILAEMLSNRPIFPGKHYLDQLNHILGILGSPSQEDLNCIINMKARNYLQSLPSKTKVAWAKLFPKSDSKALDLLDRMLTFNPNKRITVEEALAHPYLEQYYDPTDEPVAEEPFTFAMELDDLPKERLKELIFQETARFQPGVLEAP
Conditions: at 1 µM
observation-type: inhibition (%)

c1cnn2ncc(-c3ccnc(NCCCN4CCOCC4)n3)c2c1; 0.61
N#Cc1ccc2c(-c3ccnc(NC4CC4)n3)c(-c3ccc(F)cc3)nn2c1; 1.27
FC(F)(F)CNc1nccc(-c2cnn3ncccc23)n1; 2.69
COc1ccc2ncn(-c3cc(O[C@H](C)c4ccccc4C(F)(F)F)c(C(N)=O)s3)c2c1; 0.26
O=C(O[C@H]1CN[C@H](C#Cc2cc3ncnc(Nc4ccc5c(ccn5Cc5cc(F)ccc5F)c4)c3s2)C1)N1CCOCC1; 2.72
CCS(=O)(=O)c1ccc(OC)c(Nc2ncc(-c3cccc(C(C)=O)c3)o2)c1; 4.06
CS(=O)(=O)Nc1ccc(-c2cc(-c3ccccc3)cc(C(N)=O)c2N)cc1; 2.24
OCCCNc1nccc(-c2c(-c3ccc(F)cc3)nn3cc(C(F)(F)F)ccc23)n1; 5.6
CS(=O)(=O)CCNCc1ccc(-c2ccc3ncnc(Nc4ccc(OCc5ccccc5)cc4)c3c2)o1; 1.62
COc1cccc(Nc2nccc(-c3cnn4ncccc34)n2)c1; 13.1
NC(=O)c1ccc2c(-c3ccnc(NCCCO)n3)c(-c3ccc(F)cc3)nn2c1; 8.87
O=C1Nc2ccccc2/C1=C1\CCc2cc(O)ccc21; 4.54

###

Molecular target: Dual specificity protein kinase TTK (Homo sapiens) (UniProt P33981);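 further: reported figures are mean TTK inhibition at 1 µM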
Sequence (P33981 whole entry): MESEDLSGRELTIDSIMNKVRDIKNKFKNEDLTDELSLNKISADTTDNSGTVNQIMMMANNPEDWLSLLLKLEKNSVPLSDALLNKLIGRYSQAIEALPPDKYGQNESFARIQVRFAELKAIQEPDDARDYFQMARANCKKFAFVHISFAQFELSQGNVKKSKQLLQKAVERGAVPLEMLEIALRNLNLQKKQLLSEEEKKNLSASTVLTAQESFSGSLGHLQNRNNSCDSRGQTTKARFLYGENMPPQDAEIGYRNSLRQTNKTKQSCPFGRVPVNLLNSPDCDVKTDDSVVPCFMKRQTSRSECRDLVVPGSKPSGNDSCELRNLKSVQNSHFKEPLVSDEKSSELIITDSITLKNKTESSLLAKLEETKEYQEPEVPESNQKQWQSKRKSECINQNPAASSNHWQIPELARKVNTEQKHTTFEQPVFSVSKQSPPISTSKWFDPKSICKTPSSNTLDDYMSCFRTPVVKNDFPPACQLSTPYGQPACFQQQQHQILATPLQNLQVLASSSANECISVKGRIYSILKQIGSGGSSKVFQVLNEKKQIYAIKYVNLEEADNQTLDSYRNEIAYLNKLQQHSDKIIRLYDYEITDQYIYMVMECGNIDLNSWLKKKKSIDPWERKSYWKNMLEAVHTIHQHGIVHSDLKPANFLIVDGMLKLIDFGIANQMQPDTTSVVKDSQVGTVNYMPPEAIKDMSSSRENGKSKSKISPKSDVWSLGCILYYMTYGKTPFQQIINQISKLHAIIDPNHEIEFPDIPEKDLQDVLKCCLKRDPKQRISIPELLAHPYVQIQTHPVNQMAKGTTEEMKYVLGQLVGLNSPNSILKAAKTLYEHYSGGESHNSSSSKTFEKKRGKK
Details: at 1 µM
Item-by-item account of inhibition
observation-type: inhibition (%)

Cc1ccc(-c2cc3c(NC(=O)C4CC4)ncnc3o2)cc1; 10.2
FC(F)(F)CNc1nccc(-c2cnn3ncccc23)n1; 8.83
N#Cc1cccc(Nc2ncc(-c3ccccc3)o2)c1; 8.8
CN(C)CCNC(=O)Nc1ccc(N(C)c2ccnc(Nc3ccc(CS(C)(=O)=O)cc3)n2)cc1; 11.4
COc1cc(N2CCN(C(C)C)CC2)ccc1Nc1nc(Nc2cccc(F)c2C(=O)O)c2cc[nH]c2n1; 77.3
COc1cc2c(cc1Nc1nc(Nc3cccc(F)c3C(N)=O)c3cc[nH]c3n1)N(C(=O)CN1CCN(C(C)C)CC1)CC2; 47.7

###

Target: Dual specificity tyrosine-phosphorylation-regulated kinase 2 (Homo sapiens) (UniProt Q92630);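 further: reported values are means of DYRK2 inhibition from screening the GSK PKIS collection at 1 µM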
Conditions: at 1 µM
Item-by-item account of inhibition
observation-type: inhibition (%)

Fc1cccc(COc2ccc(Nc3ncncc3C#Cc3ccccc3)cc2Cl)c1; 4.05
Cc1nnc(-c2cccc(-c3ccc(C(=O)NCC4CC4)cc3)c2)o1; 5.04
CCN1CCC(C(=O)Nc2n[nH]c3nnc(-c4cccc(F)c4F)cc23)CC1; 2.26
CN(C)CCNC(=O)Nc1ccc(N(C)c2ccnc(Nc3ccc(CS(C)(=O)=O)cc3)n2)cc1; 4.33

###

Target: Serine/threonine-protein kinase BRSK2 (Homo sapiens) (UniProt Q8IWQ3);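 further: mean kinase inhibition reported within the GSK PKIS dataset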
Sequence (Q8IWQ3 whole entry): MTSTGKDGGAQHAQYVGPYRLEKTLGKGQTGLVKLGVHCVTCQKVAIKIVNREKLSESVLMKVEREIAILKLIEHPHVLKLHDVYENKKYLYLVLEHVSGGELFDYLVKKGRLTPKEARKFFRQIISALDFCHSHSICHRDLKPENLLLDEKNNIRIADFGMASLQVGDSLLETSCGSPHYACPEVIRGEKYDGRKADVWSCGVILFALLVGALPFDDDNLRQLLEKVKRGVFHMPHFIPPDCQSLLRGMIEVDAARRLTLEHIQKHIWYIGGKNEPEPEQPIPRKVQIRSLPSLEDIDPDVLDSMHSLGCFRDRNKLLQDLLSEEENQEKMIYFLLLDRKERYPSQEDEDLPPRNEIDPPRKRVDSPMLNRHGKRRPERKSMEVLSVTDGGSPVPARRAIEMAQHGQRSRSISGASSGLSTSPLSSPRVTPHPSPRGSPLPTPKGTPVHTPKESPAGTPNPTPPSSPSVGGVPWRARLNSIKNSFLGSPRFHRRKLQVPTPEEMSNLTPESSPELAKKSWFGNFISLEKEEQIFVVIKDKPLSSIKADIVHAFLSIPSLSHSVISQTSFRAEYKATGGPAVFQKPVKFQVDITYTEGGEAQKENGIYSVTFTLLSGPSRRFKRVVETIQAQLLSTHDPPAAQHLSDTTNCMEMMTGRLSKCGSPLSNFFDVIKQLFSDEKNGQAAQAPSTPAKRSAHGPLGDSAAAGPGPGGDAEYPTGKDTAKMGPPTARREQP
Conditions: at 1 µM
Item-by-item account of inhibition
observation-type: inhibition (%)

Cc1c2ccc(N(C)c3ccnc(Nc4cccc(S(N)(=O)=O)c4)n3)cc2nn1C; 2.47
COc1cc(Nc2ncc(-c3ccccc3)o2)cc(OC)c1; 7.23
Cc1nnc(-c2cccc(-c3ccc(C(=O)NCC4CC4)cc3)c2)o1; 3.96
CNC(=O)c1sc(-n2cnc3cc(OC)c(OC)cc32)cc1OCc1ccccc1C(F)(F)F; 4.88
c1cnn2ncc(-c3ccnc(NCCCN4CCOCC4)n3)c2c1; 1.28
Fc1cccc(COc2ccc(Nc3ncncc3C#Cc3ccccc3)cc2Cl)c1; 4.6

###

Biological target: Mitogen-activated protein kinase 12 (Homo sapiens);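 further: values are averaged p38gamma kinase inhibition readings, compounds tested at 1 µM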
Conditions: at 1 µM
Item-by-item account of inhibition
observation-type: inhibition

Cn1c(-c2nonc2N)nc2cnccc21; 2.23%
O=C(O[C@H]1CN[C@H](C#Cc2cc3ncnc(Nc4ccc5c(ccn5Cc5cc(F)ccc5F)c4)c3s2)C1)N1CCOCC1; 3.26%
COc1ccc(-c2nn3ncccc3c2-c2ccnc(Nc3ccc(F)c(F)c3)n2)cc1; 2.57%
CN(c1ccc(NC(=O)NCCN2CCOCC2)cc1)c1ccnc(Nc2ccc(CS(C)(=O)=O)cc2)n1; 1.28%

###

Item-by-item account of inhibition
Tested on: Tyrosine-protein kinase ABL1 (Homo sapiens), P00519 [Q252H]
Settings: at 0.1 µM
observation-type: inhibition (%)

CCOc1ccc2c(-c3ccnc(Nc4cc(OC)cc(C(F)(F)F)c4)n3)cnn2n1; 1.15
Cc1cc(O)cc(C)c1/C=C/c1cncc(C(=O)OC(C)(C)C)c1; 11.7
COc1ccc(-c2nn3ncccc3c2-c2ccnc(Nc3ccc(F)c(F)c3)n2)cc1; 12.2

Sourced from ChEMBL document CHEMBL1961873
